Origin of the recorded values: patent US20250214932A1

# pIC50 values compiled below
target: Human Cav3.1 (Homo sapiens (Human)); experiment: Human Cav3.1 calcium channel patch clamp assay (SyncroPatch 384PE, HEK-293 natClytin/TASK1+Cav3.1 cell line); assay type: cell-based; details: voltage dependent block (VDB); read-out: Cav3.1 (VDB) IC50
Sequence (O43497 whole entry): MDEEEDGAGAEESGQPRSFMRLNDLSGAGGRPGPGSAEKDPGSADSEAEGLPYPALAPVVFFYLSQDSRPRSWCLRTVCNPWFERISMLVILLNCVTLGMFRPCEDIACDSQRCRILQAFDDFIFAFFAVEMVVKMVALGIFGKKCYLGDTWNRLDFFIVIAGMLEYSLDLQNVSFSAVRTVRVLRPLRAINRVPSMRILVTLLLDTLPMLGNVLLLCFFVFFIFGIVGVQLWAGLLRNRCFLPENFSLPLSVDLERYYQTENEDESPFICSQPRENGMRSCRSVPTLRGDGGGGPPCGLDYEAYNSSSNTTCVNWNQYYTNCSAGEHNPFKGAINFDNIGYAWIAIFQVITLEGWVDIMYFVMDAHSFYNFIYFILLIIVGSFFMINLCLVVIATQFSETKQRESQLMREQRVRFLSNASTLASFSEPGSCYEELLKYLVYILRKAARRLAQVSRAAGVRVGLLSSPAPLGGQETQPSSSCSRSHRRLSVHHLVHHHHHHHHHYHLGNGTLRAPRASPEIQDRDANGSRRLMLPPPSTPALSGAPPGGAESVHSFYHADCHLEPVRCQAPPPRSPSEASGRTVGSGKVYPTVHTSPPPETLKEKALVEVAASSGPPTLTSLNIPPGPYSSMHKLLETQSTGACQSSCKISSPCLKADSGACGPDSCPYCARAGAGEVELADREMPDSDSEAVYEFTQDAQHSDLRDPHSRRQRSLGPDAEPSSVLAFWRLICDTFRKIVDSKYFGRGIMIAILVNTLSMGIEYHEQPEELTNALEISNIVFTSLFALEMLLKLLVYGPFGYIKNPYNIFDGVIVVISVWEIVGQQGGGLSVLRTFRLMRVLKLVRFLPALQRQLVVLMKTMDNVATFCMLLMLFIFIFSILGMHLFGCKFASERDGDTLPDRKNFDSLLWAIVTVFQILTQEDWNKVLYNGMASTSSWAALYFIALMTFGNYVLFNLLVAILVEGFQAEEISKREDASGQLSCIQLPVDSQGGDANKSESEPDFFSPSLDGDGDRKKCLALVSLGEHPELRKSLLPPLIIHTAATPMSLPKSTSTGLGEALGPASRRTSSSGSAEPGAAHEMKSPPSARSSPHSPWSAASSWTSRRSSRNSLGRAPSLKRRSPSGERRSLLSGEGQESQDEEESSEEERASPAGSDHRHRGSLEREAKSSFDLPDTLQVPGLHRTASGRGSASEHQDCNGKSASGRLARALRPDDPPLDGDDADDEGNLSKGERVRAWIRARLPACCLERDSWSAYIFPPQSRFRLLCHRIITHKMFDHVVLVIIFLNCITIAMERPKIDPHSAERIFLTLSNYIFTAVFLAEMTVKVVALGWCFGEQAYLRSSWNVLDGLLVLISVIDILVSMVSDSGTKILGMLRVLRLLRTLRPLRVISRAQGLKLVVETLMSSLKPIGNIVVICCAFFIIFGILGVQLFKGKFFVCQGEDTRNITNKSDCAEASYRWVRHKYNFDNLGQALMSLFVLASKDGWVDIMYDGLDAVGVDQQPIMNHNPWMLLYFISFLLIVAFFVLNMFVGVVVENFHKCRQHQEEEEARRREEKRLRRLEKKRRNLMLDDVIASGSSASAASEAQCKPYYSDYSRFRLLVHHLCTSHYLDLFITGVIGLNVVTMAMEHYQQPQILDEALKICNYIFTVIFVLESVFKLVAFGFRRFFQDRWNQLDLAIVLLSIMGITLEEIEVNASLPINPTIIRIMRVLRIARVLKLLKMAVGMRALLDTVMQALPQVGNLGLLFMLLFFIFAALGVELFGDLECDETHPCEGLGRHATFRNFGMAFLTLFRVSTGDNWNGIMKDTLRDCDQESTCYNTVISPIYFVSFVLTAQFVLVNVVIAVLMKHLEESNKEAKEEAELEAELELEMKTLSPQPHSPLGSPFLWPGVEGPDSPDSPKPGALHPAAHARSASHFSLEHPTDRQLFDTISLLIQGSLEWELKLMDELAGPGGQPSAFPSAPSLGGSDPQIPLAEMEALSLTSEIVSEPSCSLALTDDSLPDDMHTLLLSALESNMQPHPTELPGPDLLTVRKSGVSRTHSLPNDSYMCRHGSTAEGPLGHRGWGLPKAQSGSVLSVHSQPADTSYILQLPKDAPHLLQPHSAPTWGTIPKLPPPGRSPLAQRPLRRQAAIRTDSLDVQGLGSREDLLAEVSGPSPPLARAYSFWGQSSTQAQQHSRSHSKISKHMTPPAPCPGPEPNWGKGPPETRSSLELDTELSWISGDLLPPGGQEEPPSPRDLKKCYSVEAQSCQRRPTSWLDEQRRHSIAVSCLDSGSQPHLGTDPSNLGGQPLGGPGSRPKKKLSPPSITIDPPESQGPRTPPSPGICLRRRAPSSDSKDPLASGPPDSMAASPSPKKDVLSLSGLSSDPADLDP
pIC50 field: float, defined as -log10 of concentration (mol/L).

Examples from the recorded data:
{"columns": ["molecule", "pIC50"],
 "data": [
  ["O=C(CN1CC2(CCC(CNC(=O)c3cccc(Cl)c3)CC2)C1)NC1(C(F)(F)F)CC1", 6.27],
  ["O=C(Nc1cc(F)cc(Cl)c1)C1CCC2(CC1)CN(CC1(O)CCC(F)(F)CC1)C2", 6.88],
  ["O=C(Nc1cc(F)cc(C(F)F)c1)C1CCC2(CC1)CN(CCS(=O)(=O)c1ccccc1)C2", 6.37],
  ["O=C(Nc1cc(F)cc(Cl)c1)C1CCC2(CC1)CN(CCC1CCC(F)(F)CC1)C2", 6.62]
]}

Record request: pIC50 value, item CC(C)(C)CCN1CC2(CCC(C(=O)Nc3cc(F)cc(Cl)c3)CC2)C1 6.60

Any idea what its pIC50 is? The molecule is COc1cc(Cl)cc(NC(=O)C2CCC3(CC2)CN(CC(=O)NC(C)(C)C)C3)c1 6.80

Find the recorded pIC50 belonging to CC(C)(C)NC(=O)CN1CC2(CCC(C(=O)Nc3cc(F)cc(Cl)c3)CC2)C1 and report it. 6.76

Given COc1cccc(NC(=O)C2CCC3(CC2)CN(CC(=O)NC(C)(C)C)C3)c1 , state its recorded pIC50. 5.97
